target or system: Baculoviral IAP repeat-containing protein 3 (Homo sapiens)
Sequence (Q13489 whole entry): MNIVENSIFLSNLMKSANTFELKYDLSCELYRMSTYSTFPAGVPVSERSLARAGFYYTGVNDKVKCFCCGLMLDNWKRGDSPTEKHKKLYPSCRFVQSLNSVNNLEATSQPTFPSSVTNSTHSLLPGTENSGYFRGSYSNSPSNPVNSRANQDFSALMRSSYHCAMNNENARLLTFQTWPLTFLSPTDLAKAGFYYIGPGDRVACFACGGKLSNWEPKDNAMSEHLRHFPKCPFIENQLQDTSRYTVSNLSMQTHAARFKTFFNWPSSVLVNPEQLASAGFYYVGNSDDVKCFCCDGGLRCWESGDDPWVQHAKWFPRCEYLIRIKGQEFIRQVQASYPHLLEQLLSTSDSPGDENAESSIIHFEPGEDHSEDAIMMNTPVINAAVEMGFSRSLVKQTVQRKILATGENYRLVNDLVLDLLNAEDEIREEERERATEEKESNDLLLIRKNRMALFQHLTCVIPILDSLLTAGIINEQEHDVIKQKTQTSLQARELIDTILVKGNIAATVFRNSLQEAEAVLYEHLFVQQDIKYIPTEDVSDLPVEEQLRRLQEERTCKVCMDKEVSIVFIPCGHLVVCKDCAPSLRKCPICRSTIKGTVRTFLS
assay procedure: For cIAP-1 BIR3 and cIAP-2 BIR3 assays, a fluorescently labeled Smac mimetic (Smac-2F) was used as the fluorescent probe. The Kd values of Smac-2F to cIAP-1 BIR3 and cIAP-2 BIR3 were determined by monitoring the total fluorescence polarization of mixtures composed with the fluorescent probe at a fixed concentration and proteins with increasing concentrations up to full saturation. Fluorescence polarization values were measured using the Infinite M-1000 plate reader (Tecan U.S., Research Triangle Park, N.C.) in Microfluor 2 96-well, black, round-bottom plates (Thermo Scientific). To each well, 1 nM of SMAC-2F and increasing concentrations of protein were added to a final volume of 125 ul in the assay buffer (100 mM potassium phosphate, pH 7.5).
pIC50: −log10 of the molar value.
measure name: pIC50

CN[C@@H](C)C(=O)N[C@H]1CN(C(=O)Nc2ccc(NC(=O)N3CC[C@H]4CC[C@@H](C(=O)N[C@H]5CCC[C@H]5c5ccccc5)N4C(=O)[C@@H](NC(=O)[C@H](C)NC)C3)cc2)CC[C@H]2CC[C@@H](C(=O)N[C@H]3CCC[C@H]3c3ccccc3)N2C1=O = > 6.00

Please turn your attention to the following entry.
CN[C@@H](C)C(=O)N[C@H]1CN(C(=O)NCCCCCCNC(=O)N2CC[C@H]3CC[C@@H](C(=O)NCCc4ccccc4)N3C(=O)[C@@H](NC(=O)[C@H](C)NC)C2)CC[C@H]2CCC(C(=O)NCCc3ccccc3)N2C1=O (some centres not stated) tested on Baculoviral IAP repeat-containing protein 3 (Homo sapiens) gave pIC50: > 5.30

----------
target or system: Baculoviral IAP repeat-containing protein 3 (Homo sapiens)
assay procedure: For cIAP-1 BIR3 and cIAP-2 BIR3 assays, a fluorescently labeled Smac mimetic (Smac-2F) was used as the fluorescent probe. The Kd values of Smac-2F to cIAP-1 BIR3 and cIAP-2 BIR3 were determined by monitoring the total fluorescence polarization of mixtures composed with the fluorescent probe at a fixed concentration and proteins with increasing concentrations up to full saturation. Fluorescence polarization values were measured using the Infinite M-1000 plate reader (Tecan U.S., Research Triangle Park, N.C.) in Microfluor 2 96-well, black, round-bottom plates (Thermo Scientific). To each well, 1 nM of SMAC-2F and increasing concentrations of protein were added to a final volume of 125 ul in the assay buffer (100 mM potassium phosphate, pH 7.5).
measure name: IC50

"CN[C@@H](C)C(=O)N[C@H]1CN(C(=O)Nc2ccc(NC(=O)N3CC[C@H]4CC[C@@H](C(=O)N[C@H]5C[C@@H]5c5ccccc5F)N4C(=O)[C@@H](NC(=O)[C@H](C)NC)C3)cc2)CC[C@H]2CC[C@@H](C(=O)N[C@H]3C[C@@H]3c3ccccc3F)N2C1=O" tested on Baculoviral IAP repeat-containing protein 3 (Homo sapiens) gave IC50: < 1 µM

CN[C@@H](C)C(=O)N[C@H]1CN(C(=O)NCCCCCCNC(=O)N2CC[C@H]3CC[C@@H](C(=O)NC4Cc5ccccc5C4)N3C(=O)[C@@H](NC(=O)[C@H](C)NC)C2)CC[C@H]2CCC(C(=O)NC3Cc4ccccc4C3)N2C1=O (some centres not stated) tested on Baculoviral IAP repeat-containing protein 3 (Homo sapiens) gave IC50: < 5 µM

CN[C@@H](C)C(=O)N[C@H]1CN(C(=O)Nc2ccc(CCc3ccc(NC(=O)N4CC[C@H]5CC[C@@H](C(=O)NC(c6ccccc6)c6ccccc6)N5C(=O)[C@@H](NC(=O)[C@H](C)NC)C4)cc3)cc2)CC[C@H]2CCC(C(=O)NC(c3ccccc3)c3ccccc3)N2C1=O (some centres not stated) tested on Baculoviral IAP repeat-containing protein 3 (Homo sapiens) gave IC50: < 0.3 µM

----------
target or system: E3 ubiquitin-protein ligase XIAP (Homo sapiens)
Sequence (P98170 whole entry): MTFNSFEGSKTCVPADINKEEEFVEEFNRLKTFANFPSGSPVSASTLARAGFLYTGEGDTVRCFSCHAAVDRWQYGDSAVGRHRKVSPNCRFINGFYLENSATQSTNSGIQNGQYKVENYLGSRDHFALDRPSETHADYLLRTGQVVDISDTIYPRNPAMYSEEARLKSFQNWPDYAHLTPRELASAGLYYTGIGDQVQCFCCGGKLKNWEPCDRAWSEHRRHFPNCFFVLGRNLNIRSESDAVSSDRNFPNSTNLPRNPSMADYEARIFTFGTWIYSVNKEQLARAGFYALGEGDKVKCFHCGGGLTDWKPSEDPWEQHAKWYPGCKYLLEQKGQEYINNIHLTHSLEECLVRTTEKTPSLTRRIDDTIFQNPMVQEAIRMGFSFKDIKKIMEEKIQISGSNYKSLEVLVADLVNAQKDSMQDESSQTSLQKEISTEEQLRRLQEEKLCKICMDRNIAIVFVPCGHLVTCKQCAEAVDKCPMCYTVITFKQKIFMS
assay procedure: For cIAP-1 BIR3 and cIAP-2 BIR3 assays, a fluorescently labeled Smac mimetic (Smac-2F) was used as the fluorescent probe. The Kd values of Smac-2F to cIAP-1 BIR3 and cIAP-2 BIR3 were determined by monitoring the total fluorescence polarization of mixtures composed with the fluorescent probe at a fixed concentration and proteins with increasing concentrations up to full saturation. Fluorescence polarization values were measured using the Infinite M-1000 plate reader (Tecan U.S., Research Triangle Park, N.C.) in Microfluor 2 96-well, black, round-bottom plates (Thermo Scientific). To each well, 1 nM of SMAC-2F and increasing concentrations of protein were added to a final volume of 125 ul in the assay buffer (100 mM potassium phosphate, pH 7.5).
pIC50: −log10 of the molar value.
measure name: pIC50

CN[C@@H](C)C(=O)N[C@H]1CN(C(=O)Nc2ccc(NC(=O)N3CC[C@H]4CC[C@@H](C(=O)N[C@H]5C[C@@H]5c5ccccc5F)N4C(=O)[C@@H](NC(=O)[C@H](C)NC)C3)cc2)CC[C@H]2CC[C@@H](C(=O)N[C@H]3C[C@@H]3c3ccccc3F)N2C1=O = > 6.00
CN[C@@H](C)C(=O)N[C@H]1CN(C(=O)NCCCCCCNC(=O)N2CC[C@H]3CC[C@@H](C(=O)N[C@H]4CC[C@@H]4c4ccccc4)N3C(=O)[C@@H](NC(=O)[C@H](C)NC)C2)CC[C@H]2CCC(C(=O)N[C@H]3CC[C@@H]3c3ccccc3)N2C1=O (some centres undefined) = > 6.00
CN[C@@H](C)C(=O)N[C@H]1CN(C(=O)Nc2ccc(NC(=O)N3CC[C@H]4CC[C@@H](C(=O)N[C@H]5C[C@@H]5c5ccc(C(F)(F)F)c(F)c5)N4C(=O)[C@@H](NC(=O)[C@H](C)NC)C3)cc2)CC[C@H]2CC[C@@H](C(=O)N[C@H]3C[C@@H]3c3ccc(C(F)(F)F)c(F)c3)N2C1=O = > 5.52

Please turn your attention to the following entry.
Field pIC50 (entry CN[C@@H](C)C(=O)N[C@H]1CN(C(=O)NCCCCCCNC(=O)N2CC[C@H]3CC[C@@H](C(=O)N[C@H]4CCC[C@H]4c4ccccc4)N3C(=O)[C@@H](NC(=O)[C@H](C)NC)C2)CC[C@H]2CCC(C(=O)N[C@H]3CCC[C@H]3c3ccccc3)N2C1=O (some centres undefined) ) reads > 6.00

----------
target or system: Baculoviral IAP repeat-containing protein 2 (Homo sapiens, UniProt Q13490)
Sequence (Q13490 whole entry): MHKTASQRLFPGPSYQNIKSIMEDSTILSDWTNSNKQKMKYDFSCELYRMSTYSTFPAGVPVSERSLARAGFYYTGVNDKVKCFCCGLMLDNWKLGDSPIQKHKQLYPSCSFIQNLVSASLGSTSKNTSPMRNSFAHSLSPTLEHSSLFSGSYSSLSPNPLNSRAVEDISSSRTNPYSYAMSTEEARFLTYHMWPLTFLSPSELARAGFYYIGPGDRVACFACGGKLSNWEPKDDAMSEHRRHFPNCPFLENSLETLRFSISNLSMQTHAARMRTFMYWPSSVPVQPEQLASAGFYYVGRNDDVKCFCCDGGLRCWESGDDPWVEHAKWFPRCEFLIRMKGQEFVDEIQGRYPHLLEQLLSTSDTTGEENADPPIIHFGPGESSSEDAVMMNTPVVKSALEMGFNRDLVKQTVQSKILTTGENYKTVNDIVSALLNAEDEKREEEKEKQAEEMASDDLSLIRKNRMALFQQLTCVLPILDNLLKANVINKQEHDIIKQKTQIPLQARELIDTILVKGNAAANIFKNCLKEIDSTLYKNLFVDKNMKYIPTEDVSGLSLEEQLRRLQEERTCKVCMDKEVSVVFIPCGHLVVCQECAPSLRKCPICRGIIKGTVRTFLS
assay procedure: For cIAP-1 BIR3 and cIAP-2 BIR3 assays, a fluorescently labeled Smac mimetic (Smac-2F) was used as the fluorescent probe. The Kd values of Smac-2F to cIAP-1 BIR3 and cIAP-2 BIR3 were determined by monitoring the total fluorescence polarization of mixtures composed with the fluorescent probe at a fixed concentration and proteins with increasing concentrations up to full saturation. Fluorescence polarization values were measured using the Infinite M-1000 plate reader (Tecan U.S., Research Triangle Park, N.C.) in Microfluor 2 96-well, black, round-bottom plates (Thermo Scientific). To each well, 1 nM of SMAC-2F and increasing concentrations of protein were added to a final volume of 125 ul in the assay buffer (100 mM potassium phosphate, pH 7.5).
pIC50: −log10 of the molar value.
measure name: pIC50

Example entries begin here.
CN[C@@H](C)C(=O)N[C@H]1CN(C(=O)Nc2ccc(NC(=O)N3CC[C@H]4CC[C@@H](C(=O)N[C@H]5C[C@@H]5c5ccc(C(F)(F)F)c(F)c5)N4C(=O)[C@@H](NC(=O)[C@H](C)NC)C3)cc2)CC[C@H]2CC[C@@H](C(=O)N[C@H]3C[C@@H]3c3ccc(C(F)(F)F)c(F)c3)N2C1=O = > 5.52
CN[C@@H](C)C(=O)N[C@H]1CN(C(=O)Nc2ccc(NC(=O)N3CC[C@H]4CC[C@@H](C(=O)N[C@H]5C[C@@H]5c5ccccc5F)N4C(=O)[C@@H](NC(=O)[C@H](C)NC)C3)cc2)CC[C@H]2CC[C@@H](C(=O)N[C@H]3C[C@@H]3c3ccccc3F)N2C1=O = > 6.00
CN[C@@H](C)C(=O)N[C@H]1CN(C(=O)NCCCCCCNC(=O)N2CC[C@H]3CC[C@@H](C(=O)N[C@H]4CCC[C@H]4c4ccccc4)N3C(=O)[C@@H](NC(=O)[C@H](C)NC)C2)CC[C@H]2CCC(C(=O)N[C@H]3CCC[C@H]3c3ccccc3)N2C1=O (stereo not given in full) = > 5.52
CN[C@@H](C)C(=O)N[C@H]1CN(C(=O)Nc2ccc(Cc3ccc(NC(=O)N4CC[C@H]5CC[C@@H](C(=O)N[C@H]6C[C@@H]6c6ccccc6)N5C(=O)[C@@H](NC(=O)[C@H](C)NC)C4)cc3)cc2)CC[C@H]2CCC(C(=O)N[C@H]3C[C@@H]3c3ccccc3)N2C1=O (stereo not given in full) = > 5.52

Field pIC50 (entry CN[C@@H](C)C(=O)N[C@H]1CN(C(=O)NCCCCCCNC(=O)N2CC[C@H]3CC[C@@H](C(=O)NC4Cc5ccccc5C4)N3C(=O)[C@@H](NC(=O)[C@H](C)NC)C2)CC[C@H]2CCC(C(=O)NC3Cc4ccccc4C3)N2C1=O (stereo not given in full) ) reads > 5.00
